# Tested on: T-47D breast
# experiment: NCI tumour cell line growth inhibition, 48 h
property.label: GI50

# smiles.record, result
measured = [
    ("Cc1cn2c(/C=C3\\C(=O)N(C)c4ccc(O)cc43)c(C)nc2s1", "4.48 µM"),
    ("CC(C)S(=O)(=O)c1ccccc1Nc1nc(Nc2cccc(NC(=O)CN)c2)ncc1Cl", "0.586 µM"),
    ("O=C(Nc1ccc(-c2ccccc2)cc1)C1CCN(S(=O)(=O)c2ccccc2Cl)CC1", "> 100 µM"),
    ("COc1cc(C2=C(c3cn(C)c4ccccc34)COC2=O)cc(OC)c1OC", "0.0604 µM"),
    ("Cn1cc(C2=C(c3cn(CCCCCN)c4ccccc34)C(=O)NC2=O)c2ccccc21", "6.23 µM"),
]

---

# System: OVCAR-3 ovarian
# experiment: NCI tumour cell line growth inhibition, 48 h; in the data active = GI50 below about 0.43 µM; inactive = the rest
Labels: yes (1) = active, no (0) = inactive

# compound, system.under.test, group
rows = [
    ("O=C(Nc1ccc(-c2ccccc2)cc1)C1CCN(S(=O)(=O)c2ccccc2Cl)CC1", "OVCAR-3 ovarian", "no (0)"),
    ("COc1ccc2c(O)cc3c(c2c1)[C@H](CCl)CN3C(=O)c1cc2cc(NC(=O)CCN3CCOCC3)ccc2[se]1", "OVCAR-3 ovarian", "yes (1)"),
    ("C=C1C(=O)O[C@H]2/C=C(/C)C3=CC(=O)[C@@](C)(C[C@@H](OC(=O)/C(C)=C\\C)C12)O3 (stereo not given in full)", "OVCAR-3 ovarian", "no (0)"),
    ("CC(C)S(=O)(=O)c1ccccc1Nc1nc(Nc2cccc(NC(=O)CN)c2)ncc1Cl", "OVCAR-3 ovarian", "yes (1)"),
    ("COCCOc1cnc2ccn([C@H](C)c3nnc4c(F)cc(-c5cnn(C)c5)cn34)c(=O)c2c1", "OVCAR-3 ovarian", "no (0)"),
    ("COc1cc2c3c(n(CCCN(C)C)c(=O)c2cc1OC)-c1ccccc1C3=O", "OVCAR-3 ovarian", "no (0)"),
    ("CC(C)N=c1cc2n(-c3ccc(Cl)cc3)c3ccccc3nc-2cc1Nc1ccc(Cl)cc1", "OVCAR-3 ovarian", "no (0)"),
    ("COc1ccc(Nc2c3ccccc3nc3occ(Cl)c23)cc1", "OVCAR-3 ovarian", "yes (1)"),
    ("NC(CS/C(Cl)=C/Cl)C(=O)O (stereo not given)", "OVCAR-3 ovarian", "no (0)"),
    ("COc1ccc(C(=O)COc2cccc(/C=C3\\Oc4ccc5ccccc5c4C3=O)c2)cc1", "OVCAR-3 ovarian", "no (0)"),
]

---

Listing of recorded GI50 by entry.
# Test system: SF-295 CNS
# experiment: NCI tumour cell line growth inhibition, 48 h

# smiles.record, system.under.test, GI50
rows = [
    ("COc1ccc(-c2ccc(/C=N/n3c(C)n[nH]c3=S)o2)c([N+](=O)[O-])c1", "SF-295 CNS", "36.3 µM"),
    ("Cc1cc(S(=O)(=O)N/N=C(\\Sc2cc(Cl)c(C)cc2S(N)(=O)=O)c2ccc(Cl)cc2)c(Cl)cc1Cl", "SF-295 CNS", "> 100 µM"),
    ("C[C@]12CC[C@@H]3c4ccc(O)cc4CC[C@H]3[C@@H]1CC[C@@H]2NS(=O)(=O)c1cccc(F)c1", "SF-295 CNS", "3.29 µM"),
    ("N.N.N.N.[Cl-].[Co+3].[N-]=[N+]=[N-].[N-]=[N+]=[N-]", "SF-295 CNS", "> 100 µM"),
    ("Cc1cc[c-]cc1.Fc1c[c-]c(-c2ccccn2)c(F)c1.[Pt+2].c1ccc(P(C[PH+](c2ccccc2)c2ccccc2)c2ccccc2)cc1", "SF-295 CNS", "2.56 µM"),
    ("[Au+].[Au+].[Au+].[c-]1nccn1Cc1ccccc1.[c-]1nccn1Cc1ccccc1.[c-]1nccn1Cc1ccccc1", "SF-295 CNS", "10.5 µM"),
    ("O=C(Nc1ccc(-n2cc(-c3ccncc3)c(-c3ccc(Cl)c(O)c3)n2)cc1)Nc1ccc(Cl)c(C(F)(F)F)c1", "SF-295 CNS", "1.26 µM"),
]
